Provide the recorded Population Normal (%) for the entries that follow.
- Test system: U2OS
- Protocol Description: Multiplex assay against U2OS
- Format: toxicity, cell-based
- Protocol Conditions: human, 48 h, 10 µM, compound concentration 10 uM, replicate 2
Answers are plain numbers, in %.

Some molecules with recorded Population Normal (%):
[
  {
    "Molecule": "CCCS(=O)(=O)c1nc(NC2CC2)cc(-c2ccc3c(ccn3C3CC(C)(C)NC(C)(C)C3)c2)n1",
    "Test System": "U2OS",
    "Measure Name": "Population Normal (%)",
    "Result Value": 91
  },
  {
    "Molecule": "O=C(Nc1ccc(-c2ccnc(Nc3ccc(N4CCOCC4)cc3)n2)cc1)[C@@H]1CCCN1",
    "Test System": "U2OS",
    "Measure Name": "Population Normal (%)",
    "Result Value": 91
  },
  {
    "Molecule": "CN1C2CCC1CC(OC(c1ccc(F)cc1)c1ccc(F)cc1)C2.Cl (stereo not given)",
    "Test System": "U2OS",
    "Measure Name": "Population Normal (%)",
    "Result Value": 93
  },
  {
    "Molecule": "Cc1ccc(C(=O)Nc2cccc(C(F)(F)F)c2)cc1Nc1nc(-c2cccnc2)nc2c1cnn2C",
    "Test System": "U2OS",
    "Measure Name": "Population Normal (%)",
    "Result Value": 71
  }
]

Then there is this molecule:
Req: What measured Population Normal (%) goes with CNc1cc(Oc2cc(C(=O)Nc3cc(N4CCN(C)CC4)cc(C(F)(F)F)c3)ccc2C)ncn1 ?
Resp: 50

---

- Test system: Fibroblast
- Protocol Description: Multiplex assay against human fibroblast
- Type: toxicity, cell-based
- Protocol Conditions: 24 h, 1 µM, compound concentration 1 uM, replicate 2
Measure Name: Population Normal (%)
Answers are plain numbers, in %.

Some compounds with recorded Population Normal (%):
[
  {
    "Compound": "C=CCn1c(=O)c2cnc(Nc3ccc(N4CCN(C)CC4)cc3)nc2n1-c1cccc(C(C)(C)O)n1",
    "Population Normal (%)": 70
  },
  {
    "Compound": "COc1cccc2cc(-c3nc([C@H]4CC[C@H](C(=O)O)CC4)n4ncnc(N)c34)[nH]c12",
    "Population Normal (%)": 65
  }
]

Give Population Normal (%) for each of the items listed below.
1. O=C(Nc1cccnn1)N1CCC(=Cc2cccc(Oc3ccc(C(F)(F)F)cn3)c2)CC1
2. O=C(Nc1ccc(Cl)cc1)Nc1cccc(-c2cccc(N3CCCC3)n2)c1
3. O=C1NC(=O)C(c2cnc3ccccn23)=C1c1cn2c3c(cc(F)cc13)CN(C(=O)N1CCCCC1)CC2
4. COc1cc2ncnc(Nc3ccc(F)c(Cl)c3)c2cc1NC(=O)/C=C/CN1CCCCC1 [DACOMITINIB ANHYDROUS]
5. COc1ccc(-c2ccc3c(N4CCOCC4)nc(N4C[C@@H](C)O[C@@H](C)C4)nc3n2)cc1CO
6. CCN1CCN(Cc2ccc(Nc3ncc(F)c(-c4cc(F)c5nc(C)n(C(C)C)c5c4)n3)nc2)CC1.CS(=O)(=O)O
7. CN1CCC(=C2c3ccccc3CC(=O)c3sccc32)CC1.O=C(O)/C=C/C(=O)O [KETOTIFEN FUMARATE]
8. O=C1N/C(=N/c2ccccc2F)S/C1=C\c1ccc(C(=O)O)cc1

Resp:
[57, 93, 86, 42, 74, 89, 92, 94]

Give Population Normal (%) for each of the items listed below.
1. CCOc1cc(C(=O)N2CCC(N3CCN(C)CC3)CC2)ccc1Nc1ncc2c(n1)N(C1CCCC1)c1ccccc1C(=O)N2C
2. O=C(Cc1ccc(-c2ccc(OCCN3CCOCC3)cc2)cn1)NCc1ccccc1
3. COc1cc(N2CCN(C)CC2)ccc1Nc1ncc2c(n1)N(C)c1ccccc1C(=O)N2C
4. O=C(Nc1ccc(-c2ccnc(Nc3ccc(N4CCOCC4)cc3)n2)cc1)[C@@H]1CCCN1
5. CCN1CCN(c2ccc(Nc3cc(N(C)C(=O)Nc4c(Cl)c(OC)cc(OC)c4Cl)ncn3)cc2)CC1
6. CCNc1cc(N[C@H]2CC[C@H](O)CC2)nc(Nc2ccc3c(ccn3Cc3ccccc3)c2)n1
7. CCCn1c(=O)c2[nH]c(-c3cnn(Cc4cccc(C(F)(F)F)c4)c3)nc2n(CC)c1=O

Resp:
1. 94
2. 90
3. 93
4. 93
5. 53
6. 46
7. 95

Give Population Normal (%) for each of the items listed below.
1. Cc1ccc2nc(NCCN)c3ncc(C)n3c2c1.O=C(O)C(F)(F)F.O=C(O)C(F)(F)F
2. Cl.O=c1c2cccn2c2ccccc2n1CCCN1CCC(c2ccc(Cl)cc2)CC1
3. CCc1cccc(CC)c1NC(=O)c1nn(C)c2c1CCc1cnc(Nc3ccc(N4CCN(C)CC4)cc3OC)nc1-2
4. C=C1/C(=C\C=C2/CCC[C@]3(C)[C@@H]([C@H](C)/C=C/[C@H](C)C(C)C)CC[C@@H]23)C[C@@H](O)C[C@@H]1O
5. Cc1cc(C)c(S(=O)(=O)N(Cc2ccc(-c3cccc(S(C)(=O)=O)c3)cc2)Cc2ccc(C(F)(F)F)o2)c(C)c1
6. CCCS(=O)(=O)Nc1ccc(F)c(C(=O)c2c[nH]c3ncc(Cl)cc23)c1F
7. CCc1cccc(CC)c1NC(=O)c1nn(C)c2c1CCc1cnc(Nc3ccc(C(=O)NC4CCN(C)CC4)cc3OC(F)(F)F)nc1-2

Resp:
56
92
69
95
98
59
89

Give Population Normal (%) for each of the items listed below.
1. CCn1c(=O)c(-c2ccc(-c3cncs3)cc2Cl)cc2cnc(Nc3ccc(N4CCN(C)CC4)cc3)nc21
2. CNC(=O)c1ccc(Nc2nc(OC3CCCC3)c3c(-c4ccc5nc(C)oc5c4)c[nH]c3n2)c(OC)c1

Resp:
[95, 64]

Source of measurements: ChEMBL document CHEMBL4689842
